B1: PhoQ; a variant is named by its letters at X, in order, P23837 (parent)
chain: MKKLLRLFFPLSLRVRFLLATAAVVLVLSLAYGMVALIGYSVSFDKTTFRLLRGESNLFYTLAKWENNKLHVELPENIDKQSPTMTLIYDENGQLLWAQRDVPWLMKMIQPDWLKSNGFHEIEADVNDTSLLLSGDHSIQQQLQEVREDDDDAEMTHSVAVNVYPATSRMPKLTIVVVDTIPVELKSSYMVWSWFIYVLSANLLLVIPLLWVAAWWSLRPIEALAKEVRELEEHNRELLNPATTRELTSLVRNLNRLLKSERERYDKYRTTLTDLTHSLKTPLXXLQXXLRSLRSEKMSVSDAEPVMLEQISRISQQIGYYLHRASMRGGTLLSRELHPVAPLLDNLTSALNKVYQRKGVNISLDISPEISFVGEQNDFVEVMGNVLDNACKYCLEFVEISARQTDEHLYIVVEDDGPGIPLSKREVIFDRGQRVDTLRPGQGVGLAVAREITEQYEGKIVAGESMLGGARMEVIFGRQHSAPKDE

Variants of: B1
Test: enrichment ratio after two sorts for PhoP signalling (ratio (wild type AVST 3.29)); higher = more functional
Settings: with PhoP (E. coli)
Over roughly 140,000 sequences, “enrichment ratio after two sorts for PhoP signalling” has its median near 0; the highest 2% begin near 11. This excerpt belongs to a sample that is enriched for the highest values.
MEASURE_NAME: enrichment ratio

Would you mind telling me what enrichment ratio value was observed for "ERQE" ?
≤ 0.25

Param item = "FEMT" ; retrieve measured enrichment ratio.
3.56

enrichment ratio for "ALHF" ?
≤ 0.25

Name the reported enrichment ratio value associated with the variant "SEFH"
4.4

What measured enrichment ratio goes with "QKMV" ?
≤ 0.25

Look at this variant and give its reported enrichment ratio. "TDLQ"
18.8

Entry "ANGR" : reported enrichment ratio = ?
≤ 0.25

I am curious: what enrichment ratio value has been reported for "ANSF" ?
5.47

enrichment ratio for "MFKP" ?
≤ 0.25

Record request: enrichment ratio value, item "ARVA"
≤ 0.25

Consider the variant "LTLQ" and give its measured enrichment ratio.
2.15

Report enrichment ratio for "PIQW" please.
≤ 0.25

What value of measured enrichment ratio is listed for "RGLQ" ?
≤ 0.25

Can you share its enrichment ratio? I mean this variant: "ISQH"
≤ 0.25

// query enrichment ratio value for entry "QQNV"
≤ 0.25

Look at this variant and give its reported enrichment ratio. "ANDS"
≤ 0.25

What enrichment ratio value was documented for this variant, "MRYG" ?
≤ 0.25

So what's the measured enrichment ratio for this one? "FMEW"
≤ 0.25

What does the data say about its enrichment ratio? Entry: "LDYV"
≤ 0.25

Give the measured enrichment ratio of "ANGD" .
≤ 0.25

For the variant shown here, "ANGP" , give the reported enrichment ratio.
≤ 0.25

What value of measured enrichment ratio is listed for "SAKT" ?
≤ 0.25

Just for reference, a collection of fitness landscapes (doi:10.1126/science.1257360) is where these values come from.
